System: MCF-7 breast cancer cells
Assay: MTT cytotoxicity assay, MCF-7
Details: Homo sapiens, MCF7, 48 h, read-out: IC50 MCF-7
metric: pIC50
Quick note: pIC50 values are minus log10 of concentrations in mol/L.

# count of solved cases: 3
INSERT INTO results (molecule, metric, assay_value) VALUES
  ('COc1ccc(C(=O)CCCC(=O)NN=Cc2ccco2)cc1 [Compound 8d]', 'pIC50', 3.29),
  ('Cc1ccc(C(=O)CCCC(=O)NN=CCC(C)C)cc1 [Compound 9c]', 'pIC50', 4.02),
  ('O=C(CCCC(=O)c1cccs1)NN=Cc1ccco1 [Compound 8e]', 'pIC50', 3.31);

Sure, the documented pIC50 for O=C(CCCC(=O)c1ccccc1)NN=Cc1ccco1 [Compound 8a] is 4.96

Sure, the documented pIC50 for CC(C)CC=NNC(=O)CCCC(=O)c1ccc(Cl)cc1 [Compound 9b] is 3.68

Sure, the documented pIC50 for COc1ccc(C=NNC(=O)CCCC(=O)c2ccc(Cl)cc2)cc1 [Compound 7b] is 4.99

Sure, the documented pIC50 for CC(C)CC=NNC(=O)CCCC(=O)c1ccccc1 [Compound 9a] is 3.92

Sure, the documented pIC50 for Cc1ccc(C(=O)CCCC(=O)NN=Cc2ccco2)cc1 [Compound 8c] is 3.33

Sure, the documented pIC50 for COc1ccc(C=NNC(=O)CCCC(=O)c2ccc(OC)cc2)cc1 [Compound 7d] is 5.12

Sure, the documented pIC50 for COc1ccc(C(=O)CCCC(=O)NN=CCC(C)C)cc1 [Compound 9d] is 3.94
